assay: Pharmacokinetic study of CdG in rats after i.v. and p.o. administration; type: in vivo, Male Sprague-Dawley rats; conditions: male, Sprague-Dawley, rat, plasma, po, 1 mg/kg
observable: AUC (ng·h/mL)
Answer format: numeric, ng·h/mL implied, no suffix.

What AUC value was documented for this molecule, N#C[C@]1(CO)O[C@@H](n2cnc3c(=O)[nH]c(N)nc32)C[C@@H]1O ? 90.1

* * *

test: Pharmacokinetic study of CdG and ETV oral co-administration in rats; assay type: in vivo; conditions: male, Sprague-Dawley, rat, plasma, 1 mg/kg
observable: Tmax (min)
# unit: min | format: bare number

Fill in the blank: the reported Tmax of N#C[C@]1(CO)O[C@@H](n2cnc3c(=O)[nH]c(N)nc32)C[C@@H]1O is ____. 45
